Recorded AUC of viability dose-response curve for the following molecules
# System: NOMO1
# Assay method text: AUC of viability dose-response curve (% viability x log10 dose units); higher = less sensitive
# Details: HPLM + 10% dialyzed FBS; 48 h
Enter a number only.

Check out these entries, answers already filled in.
• Cn1c(CNc2ccc(C(=N)N)cc2)nc2cc(C(=O)N(CCC(=O)O)c3ccccn3)ccc21 = 441
• CC(C)C1=C(O)C=C(O)C(=C1)C/2=N/NC(=O)N2C3=CC4=C(C=C3)[N](C)C=C4 = 259
• Cc1cnc(NC(=O)Nc2cc(Br)c(C)cc2OC[C@@H]2CNCCO2)cn1 = 355

Let us examine a further case.
Ask | What does the data say about its AUC of viability dose-response curve? Entry: COc1ccc(-c2nc(N3CCOCC3)c3sc(CN(C)c4ncc(C(=O)NO)cn4)cc3n2)cn1
Reply | 156
